molecular target: UniProtKB O14842; test: Cell-based aequorin assay (CHO cells stably expressing GPR40 and aequorin); parameters: expressed in transfected cells; host or cells: CHO cells stably transfected with GPR40 and aequorin; conditions: activation of human GPR40, CHO cells, 0.01% HSA
measurement-label: EC50

Param item = C=CC(C)(C)C(O)c1cc(COc2cccc(C(CC(=O)O)C3CC3)c2)ccc1-c1cc(OC)ccc1F (single isomer, unassigned) ; retrieve measured EC50. 100 to 1000 nM

What do you get for COc1cccc(-c2ccc(COc3cccc(C(C)CC(=O)O)c3)cc2C2=CCCC2(C)C)c1 (single isomer, unassigned) ? 100 to 1000 nM

Next: CC1(C)CCC[C@@H]1c1cc(COc2cccc([C@@H](CC(=O)O)C3CC3)c2)ccc1-c1cccc(OC(F)F)c1 (single isomer, unassigned) 100 to 1000 nM

Similarly, CCC(CC(=O)O)c1cccc(OCc2ccc(-c3cc(OC)ncc3F)c(C3CCCC3(C)C)c2)c1F (single isomer, unassigned) ? 100 to 1000 nM

Check CCCCCOc1cc(COc2cccc(C(CCC)CC(=O)O)c2)ccc1-c1cc(OC)ccc1F (single isomer, unassigned) too. 100 to 1000 nM

Again, but for CC[C@H](CC(=O)O)c1cccc(OCc2ccc(-c3cc(Cl)ccc3F)c(C3=CCCC3(C)C)c2)c1 (single isomer, unassigned) 100 to 1000 nM

Now consider COc1ccc(F)c(-c2ccc(COc3cccc([C@@H](CC(=O)O)C4CC4)c3)cc2C(C)(C)C)c1 (single isomer, unassigned) . 100 to 1000 nM

What about COc1cc(-c2cc(F)c(COc3cccc([C@@H](CC(=O)O)C4CC4)c3)cc2[C@H]2CCCC2(C)C)c(F)cn1 (single isomer, unassigned) ? 10 to 100 nM

Also need CCCCOc1cc(COc2cccc([C@H](C)CC(=O)O)c2)ccc1-c1cccc(OCC)c1 (single isomer, unassigned) , thanks. 1000 to 10000 nM

Ok, now COc1ccc(F)c(-c2ccc(COc3cccc([C@@H](CC(=O)O)C4CC4)c3)cc2[C@H](OC)C(C)(C)C)c1 (single isomer, unassigned) 1000 to 10000 nM

And what about the compound CCC/C=C/c1cc(COc2cccc(C(C)CC(=O)O)c2)ccc1-c1cc(OC)ccc1F (single isomer, unassigned) ? 100 to 1000 nM

Next compound up: COc1ccc(F)c(-c2ccc(COc3cccc(C(CC(=O)O)C4CC4)c3)cc2C2CCCC2(C)C)c1 (single isomer, unassigned) [Example 66.6] 10 to 100 nM

###

target: GPR40 (Homo sapiens); experiment: Inositol phosphate accumulation assay (A9_GPR40 cells); assay type: cell-based; parameters: expressed in transfected cells; host or cells: CHO cells stably transfected with GPR40 and aequorin; settings: inositol phosphate assay, A9_GPR40 cells, 1 hour; read-out: IP3 EC50
Sequence (O14842 whole entry): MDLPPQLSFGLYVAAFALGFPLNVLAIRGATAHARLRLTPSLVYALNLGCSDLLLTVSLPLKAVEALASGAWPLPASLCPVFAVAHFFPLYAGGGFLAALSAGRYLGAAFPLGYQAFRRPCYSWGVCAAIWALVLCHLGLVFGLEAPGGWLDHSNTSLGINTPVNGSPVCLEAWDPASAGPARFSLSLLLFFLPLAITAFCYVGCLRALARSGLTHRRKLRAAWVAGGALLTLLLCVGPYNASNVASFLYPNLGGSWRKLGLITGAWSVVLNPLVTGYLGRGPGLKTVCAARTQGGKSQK
measurement-label: EC50

Could you share what EC50 was measured for COc1ccc(F)c(-c2ccc(COc3cccc([C@@H](CC(=O)O)C4CC4)c3)cc2[C@H]2OCCCC2(C)C)c1 (single isomer, unassigned) , tested on GPR40 (Homo sapiens)? 10 to 100 nM

Another compound: COc1ccc(F)c(-c2ccc(COc3cccc([C@@H](CC(=O)O)C4CC4)c3)cc2[C@H](F)C(C)(C)C)c1 (single isomer, unassigned) 10 to 100 nM

Do the same for COc1ccc(F)c(-c2ccc(COc3cccc([C@@H](CC(=O)O)C4CC4)c3F)cc2[C@@H](OC)C2(C)CC2)c1 (single isomer, unassigned) please < 10 nM

Also check COc1ccc(F)c(-c2cc(F)c(COc3cccc([C@@H](CC(=O)O)C4CC4)c3F)cc2[C@H]2CCCC2(C)C)c1 (single isomer, unassigned) < 10 nM

Proceed to COc1cc(-c2ccc(COc3cccc(C(C)(C)CC(=O)O)c3)cc2C2CCCC2(C)C)c(F)cn1 (single isomer, unassigned) 10 to 100 nM

Same thing, different compound: "COc1ccc(F)c(-c2ccc(COc3cc(CCC(=O)O)ccn3)cc2C2=CCCC2(C)C)c1" 100 to 1000 nM

// repeat for COc1ccc(F)c(-c2ccc(COc3cccc(C(CC(=O)O)C4CC4)c3)cc2C(C)C(C)(C)C)c1 (single isomer, unassigned) and report < 10 nM

Lookup COc1ccc(F)c(-c2ccc(COc3cccc([C@@H](CC(=O)O)C4CC4)c3)cc2CN2[C@H](C)CCC[C@H]2C)c1 (single isomer, unassigned) 10 to 100 nM

Param item: CC1(C)CCC[C@@H]1c1cc(COc2cccc([C@@H](CC(=O)O)C3CC3)c2F)ccc1-c1cc(C(F)F)ccc1F (single isomer, unassigned) 10 to 100 nM
